assay: in vitro; settings: human, hela cells, % viability
Provide the reported viability at 28.5 h, 10 µM of each item.
Give the value, in units of %, as a plain number.

In: So what's the measured viability at 28.5 h, 10 µM for this one? COc1cc(C=c2sc(=CC(=O)C(C)(C)C)[nH]c2=O)ccc1OCC(=O)O
Out: 104

In: Look at this molecule and give its reported viability at 28.5 h, 10 µM. CC1(C)NC(=O)N(CC(O)CN(C2CCCCC2)C2CCCCC2)C1=O (centres unmarked)
Out: 101

In: So what's the measured viability at 28.5 h, 10 µM for this one? COc1ccc2c(CN3CC4CCCN4C[C@H]3C)cn(C)c2c1 (some centres unmarked)
Out: 92.4

In: Field request: viability at 28.5 h, 10 µM | item: CNC(=O)c1ccc(-c2ccccc2OC)nc1N1CCOCC1
Out: 87.4

In: Quick one: viability at 28.5 h, 10 µM of C[C@H](Nc1cncc(-c2ccc(F)cc2F)n1)c1ccccc1 ?
Out: 98.9
